- tested system: MAP kinase-activated protein kinase 2 (Homo sapiens)
- Sequence (P49137 whole entry): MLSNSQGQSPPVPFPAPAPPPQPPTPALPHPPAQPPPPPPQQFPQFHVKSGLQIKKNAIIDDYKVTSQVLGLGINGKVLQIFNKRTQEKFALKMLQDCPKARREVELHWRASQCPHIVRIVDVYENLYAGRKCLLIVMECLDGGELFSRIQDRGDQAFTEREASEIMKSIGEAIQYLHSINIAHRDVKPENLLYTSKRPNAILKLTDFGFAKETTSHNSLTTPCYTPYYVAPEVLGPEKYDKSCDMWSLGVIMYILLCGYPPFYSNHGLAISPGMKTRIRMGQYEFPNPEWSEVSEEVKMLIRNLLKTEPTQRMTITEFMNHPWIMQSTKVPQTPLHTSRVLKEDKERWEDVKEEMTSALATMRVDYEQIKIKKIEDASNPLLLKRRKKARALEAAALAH
- assay overview: Inhibition of MAPKAPK2 assessed as [33P] incorporation by scintillation proximity assay
pIC50: −log10 of the molar value.
assay metric: pIC50

1) CC1(C)CCC[C@]2(C)[C@H]3CC[C@]4(C)O[C@@H](C5=CC(=O)OC5O)C[C@H]4[C@]3(C)CC[C@@H]12 (mixture of isomers) | 4.05
2) C=C1CC[C@H]2[C@@](C)(CC[C@H]3C(C)(C)CCC[C@]23C)[C@@H]1CC1OC(=O)C=C1CO (some centres undefined) | 4.05
3) C=C1CC[C@H]2[C@@](C)(CC[C@H]3C(C)(C)CCC[C@]23C)[C@@H]1CC(O)C1=CC(=O)OC1O (mixture of isomers) | 4.05
4) C=C1CC[C@H]2[C@@](C)(CC[C@H]3C(C)(C)CCC[C@]23C)[C@@H]1/C=C/C1=CC(=O)OC1O (mixture of isomers) | 4.05

Ref: ChEMBL document CHEMBL1150565
